# Test system: primary CD4+ T cells
# ASSAY TEXT: 72 h viability
ASSAY ENDPOINT: toxicity, in words

CO/C1=C\C(C)=C\[C@@H](C)[C@@H](O)[C@@H](C)C/C(C)=C/C=C/[C@H](OC)[C@@H]([C@@H](C)[C@@H](O)[C@H](C)[C@@]2(O)C[C@@H](O[C@@H]3O[C@@H](C)[C@H](O)[C@@H](O)[C@H]3OC)[C@H](C)[C@@H](C(C)C)O2)OC1=O [compound 18, leucanicidin, reference compound]; significantly more toxic
C/C=C/C=C/[C@H]1O[C@@](O)([C@@H](C)[C@H](O)[C@H](C)[C@H]2OC(=O)/C(OC)=C/C(C)=C/[C@@H](C)[C@@H](O)[C@@H](C)C/C(C)=C/C=C/[C@@H]2OC)C[C@@H](O[C@H]2C[C@@H](O)[C@H](O)[C@@H](C)O2)[C@@H]1C [compound 19, PC-766B, reference compound]; significantly more toxic

Each recorded value in this set is attributed to paper PMC10978252.
